Source of measurements: patent US9062100B2

- ASSAYED TARGET: T1, recombinant protein of the extracellular region of hTROP-2 (human)
- T1 sequence: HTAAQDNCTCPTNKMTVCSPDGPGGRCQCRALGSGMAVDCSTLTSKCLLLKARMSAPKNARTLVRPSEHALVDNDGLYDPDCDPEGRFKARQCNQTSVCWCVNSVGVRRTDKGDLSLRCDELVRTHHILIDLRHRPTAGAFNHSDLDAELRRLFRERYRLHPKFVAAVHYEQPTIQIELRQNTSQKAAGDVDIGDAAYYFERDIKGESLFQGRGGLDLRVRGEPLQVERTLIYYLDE
- ASSAY REMARKS: ELISA of free antibody after equilibration with antigen in solution
MEASURE NAME: Kd (pM)
The reply should be a number in pM, with the unit left off.

INSERT INTO assay_data (binder, measure_name, recorded_measurement) VALUES
  ('anti-hTROP-2 monoclonal antibody K5-107 (antibody, V domains shown) VH: QVQLQQPGSELVRPGASVKLSCKASGYTFTSYWMHWVKQRHGQGLEWIGNIYPGGGYTNYDEKFKSKGTLTVDTSSSTAYMHLSSLTSEDSAVYYCTRSSVFDYWGQGTTLTVSS VL: DILLTQSPAILSVSPGERVSFSCRASQNIGTSIHWFQQRTNGSPRLLIKYASESISGIPSRFSGSGSGTDFTLSINSVESEDIADYYCQQSNSWPFTFGSGTKLEIK', 'Kd', 4.7);

The recorded Kd for entry anti-hTROP-2 monoclonal antibody K5-116-2-1 (antibody, V domains shown) VH: QVQLQQPGAELVRPGASVKLSCKASGYTFTSYWITWVKQRPGQGLEWIGNIYPSDSYTNYNQKFRDKATLTVDKSSSTAYMQLSSPTSEDSAVYYCSALFDYWGQGTTLTVSS VL: DILLTQSPAILSVSPGERVSFSCRASQSIGTSIHWYQQRTNGSPRLLIKYASESISGIPSRFSGSGSGTDFILSINSVESEDIADYYCQQSNSWPFTFGSGTKLEIK equals 26.9

The recorded Kd for entry anti-hTROP-2 monoclonal antibody T6-16 (antibody, V domains shown) VH: EVQLQQSGPELVKPGASVKISCKASGYTFTDYNMHWVKQSHGKNLEWIGYIYPYNGGTGYNQRFKSRATMTVDKSSSTAYMELRSLTSDDSAVYYCAREDYGSSPSYAMDYWGQGTSVIVSS VL: DVVMTQTPLSLPVSLGDQASISCRSSQSLVHGNGNTYLHWYLQKPGQSPKLLIYKVSNRFSGVPDRFSGSGSGTDFTLKISRVEAEDLGVYFCSQTTHVPTFGSGTKLEIK equals 4.3

The recorded Kd for entry anti-hTROP-2 monoclonal antibody K5-70 (antibody, V domains shown) VH: QVQLQQPGAELVRPGASVKLSCKASGYTFTIYWINWVKQRPGQGLEWIGNIYPSDSYTNYNQKFKDKATLTVDKSSSTAYMQLSSPTSEDSAVYYCTRTSMADYWGQGTTLTVSS VL: DILLTQSPAILSVSPGERVSFSCRASQSIGTSIHWYQQRTNGSPRLLIKYASESISGIPSRFSGSGSGTDFTLSINSVESEDIADYYCQQSNSWPFTFGSGTKLEIK equals 6.8
